Reported values of insulin secretion stimulation for individual entries
Procedure Summary: stimulators of insulin release from INS-1E, primary screen, cell-based, 5 mM glucose, NPC library (AID 1117329); also: reference of the scale not given here
Condition Details: rat INS-1E insulin secretion, at 10 µM, active compounds read high
Field: numeric (%). Do not append units.

Solved entries (count: 5):
structure_as_smiles=COc1ccc(Cc2nccc3cc(OC)c(OC)cc23)cc1OC data_value=-2.5
structure_as_smiles=c1ccc(N2CCNCC2)cc1 data_value=3.1
structure_as_smiles=Oc1ccc([C@H]2CNCc3c2ccc(O)c3O)cc1O data_value=3.5
structure_as_smiles=C[C@]12CCC(=O)C=C1CC[C@@H]1[C@@H]2CC[C@]2(C)C(=O)CC[C@@H]12 data_value=2.4
structure_as_smiles=CCN(Cc1ccc(Cl)nc1)/C(=C/[N+](=O)[O-])NC data_value=3.5

Problem: Entry `NCCc1cc(O)c(O)cc1O` : reported insulin secretion stimulation = ?
Result: 1.2

Problem: // same read-out, input: `CCN[C@@H](C)Cc1cccc(C(F)(F)F)c1`
Result: 8.8
